target_of_assay: guinea pig αβγ-ENaC (Cavia porcellus, UniProt B8QP44+H0UT09+H0VNV9)
Construct: heterotrimer in Xenopus laevis oocytes; printed GenBank ids are 5'RACE products
Sequence (B8QP44 1-656): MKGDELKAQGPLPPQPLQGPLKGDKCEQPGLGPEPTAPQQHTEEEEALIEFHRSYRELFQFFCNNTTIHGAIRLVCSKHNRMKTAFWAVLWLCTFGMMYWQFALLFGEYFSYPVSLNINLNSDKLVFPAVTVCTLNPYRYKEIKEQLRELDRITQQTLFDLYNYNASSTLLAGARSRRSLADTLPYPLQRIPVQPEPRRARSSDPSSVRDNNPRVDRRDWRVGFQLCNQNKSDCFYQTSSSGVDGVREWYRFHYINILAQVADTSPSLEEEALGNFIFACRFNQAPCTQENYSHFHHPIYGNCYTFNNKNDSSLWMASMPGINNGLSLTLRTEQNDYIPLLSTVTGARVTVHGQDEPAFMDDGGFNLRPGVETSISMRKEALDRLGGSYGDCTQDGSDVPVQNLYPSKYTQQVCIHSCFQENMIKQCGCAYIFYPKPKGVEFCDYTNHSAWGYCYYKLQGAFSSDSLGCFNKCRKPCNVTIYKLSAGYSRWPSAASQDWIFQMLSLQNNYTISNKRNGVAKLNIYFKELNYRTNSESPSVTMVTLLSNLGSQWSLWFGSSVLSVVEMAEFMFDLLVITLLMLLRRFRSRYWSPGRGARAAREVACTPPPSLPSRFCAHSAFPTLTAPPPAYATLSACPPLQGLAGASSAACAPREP
Sequence (H0VNV9 1-640): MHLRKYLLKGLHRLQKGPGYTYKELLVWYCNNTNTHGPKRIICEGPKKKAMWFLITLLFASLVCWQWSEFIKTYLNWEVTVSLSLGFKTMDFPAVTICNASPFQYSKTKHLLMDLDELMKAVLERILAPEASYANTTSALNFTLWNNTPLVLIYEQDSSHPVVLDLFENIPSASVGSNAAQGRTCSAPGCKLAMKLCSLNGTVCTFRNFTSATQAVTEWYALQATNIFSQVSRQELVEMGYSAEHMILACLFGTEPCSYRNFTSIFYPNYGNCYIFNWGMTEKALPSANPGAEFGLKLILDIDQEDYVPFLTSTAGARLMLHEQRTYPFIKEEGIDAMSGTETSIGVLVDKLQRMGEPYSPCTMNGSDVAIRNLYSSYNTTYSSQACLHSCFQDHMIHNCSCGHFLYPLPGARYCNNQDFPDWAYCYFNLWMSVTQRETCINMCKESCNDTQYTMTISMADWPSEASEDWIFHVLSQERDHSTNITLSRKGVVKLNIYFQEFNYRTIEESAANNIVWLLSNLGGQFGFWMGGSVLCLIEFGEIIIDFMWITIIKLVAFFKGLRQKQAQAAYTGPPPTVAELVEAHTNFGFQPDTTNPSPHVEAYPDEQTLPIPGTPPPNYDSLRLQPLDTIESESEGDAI
Sequence (H0UT09 1-653): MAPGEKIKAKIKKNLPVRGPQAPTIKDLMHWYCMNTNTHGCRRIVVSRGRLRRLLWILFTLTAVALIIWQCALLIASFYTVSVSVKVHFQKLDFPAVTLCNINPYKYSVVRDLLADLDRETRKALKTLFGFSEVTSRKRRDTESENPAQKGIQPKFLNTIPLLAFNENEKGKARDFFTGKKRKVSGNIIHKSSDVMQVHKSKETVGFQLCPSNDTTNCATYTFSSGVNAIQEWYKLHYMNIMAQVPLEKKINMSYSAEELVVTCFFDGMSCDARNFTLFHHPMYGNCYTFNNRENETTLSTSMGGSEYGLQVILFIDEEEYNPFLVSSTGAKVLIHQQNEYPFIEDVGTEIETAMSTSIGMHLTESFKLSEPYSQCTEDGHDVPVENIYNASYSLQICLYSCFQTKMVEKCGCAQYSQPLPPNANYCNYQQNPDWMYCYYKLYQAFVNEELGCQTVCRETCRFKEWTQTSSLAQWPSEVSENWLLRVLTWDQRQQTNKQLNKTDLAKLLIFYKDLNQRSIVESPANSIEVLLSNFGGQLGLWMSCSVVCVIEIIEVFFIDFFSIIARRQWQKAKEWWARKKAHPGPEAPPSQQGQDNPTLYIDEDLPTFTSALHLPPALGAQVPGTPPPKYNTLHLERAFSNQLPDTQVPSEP
assay_details: two-electrode voltage clamp, Xenopus oocytes, concentration-response

compound | units_label | IC50
N=C(N)NC(=O)c1nc(Cl)c(N)nc1N [amiloride] | nM | 150
